Quick list: inhibition at 50 µM per entry.
Assay system: HDAC1 (Homo sapiens, UniProt Q13547)
Construct: purchased Enzo Life Sciences
Sequence (Q13547 whole entry): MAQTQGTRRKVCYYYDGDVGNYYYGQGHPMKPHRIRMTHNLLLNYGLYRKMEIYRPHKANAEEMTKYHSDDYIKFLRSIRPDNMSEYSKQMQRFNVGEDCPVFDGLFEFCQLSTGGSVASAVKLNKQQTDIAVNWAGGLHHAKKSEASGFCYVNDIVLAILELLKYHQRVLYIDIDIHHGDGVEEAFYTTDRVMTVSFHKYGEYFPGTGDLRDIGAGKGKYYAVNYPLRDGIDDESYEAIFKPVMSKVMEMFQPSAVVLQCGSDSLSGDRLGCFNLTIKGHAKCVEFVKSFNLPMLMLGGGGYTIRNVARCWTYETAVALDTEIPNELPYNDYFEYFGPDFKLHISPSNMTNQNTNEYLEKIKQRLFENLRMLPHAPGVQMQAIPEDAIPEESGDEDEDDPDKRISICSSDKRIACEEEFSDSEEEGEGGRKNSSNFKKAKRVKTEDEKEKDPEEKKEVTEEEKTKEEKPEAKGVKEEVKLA
Assay overview: HDAC Inhibition Screening Assay (FLUOR DE LYS Fluorimetric Drug Discovery Kit), HDAC1
Format: biochemical
Details: 50 μM compound

1) O=C(CCCCC(=O)Nc1ccc2c(c1)CC/C(=C\c1cc(C(F)(F)F)cc(C(F)(F)F)c1)C2=O)NO: > 80%
2) O=C(/C=C/c1ccc2c(c1)CCC2NCCC(=O)Nc1cc(C(F)(F)F)cc(C(F)(F)F)c1)NO (stereo not drawn): > 80%

Continue with the molecule presented below.
# return inhibition at 50 µM of Nc1cc(F)ccc1NC(=O)CCCCCCC(=O)NC1CCc2cc(/C=C/C(=O)Nc3cc(Cl)cc(Cl)c3)ccc21 (stereo not drawn) (system: HDAC1 (Homo sapiens, UniProt Q13547))
< 50%

---

Assay system: HDAC3 (Homo sapiens, UniProt O15379)
Construct: purchased Enzo Life Sciences
Sequence (O15379 whole entry): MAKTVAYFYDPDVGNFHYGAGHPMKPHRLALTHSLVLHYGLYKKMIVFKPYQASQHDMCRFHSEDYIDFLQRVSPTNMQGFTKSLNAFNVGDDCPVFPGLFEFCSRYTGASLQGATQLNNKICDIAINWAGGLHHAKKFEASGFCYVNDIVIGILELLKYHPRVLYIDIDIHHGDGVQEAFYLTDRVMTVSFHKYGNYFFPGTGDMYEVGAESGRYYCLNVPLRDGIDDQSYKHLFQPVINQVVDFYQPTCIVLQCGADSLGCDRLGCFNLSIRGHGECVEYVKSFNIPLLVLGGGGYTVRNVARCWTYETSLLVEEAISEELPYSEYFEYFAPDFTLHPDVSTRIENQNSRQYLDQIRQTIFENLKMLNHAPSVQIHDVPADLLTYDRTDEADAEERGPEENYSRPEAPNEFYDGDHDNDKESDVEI
Sequence (O75376 395-489 partner limits assumed): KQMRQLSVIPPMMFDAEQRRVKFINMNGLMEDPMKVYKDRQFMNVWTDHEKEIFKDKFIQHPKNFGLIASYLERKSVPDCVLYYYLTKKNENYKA
Assay overview: HDAC Inhibition Screening Assay (FLUOR DE LYS Fluorimetric Drug Discovery Kit), HDAC3
Format: biochemical
Details: 10 μM compound
Quick list: inhibition at 10 µM per entry.

Examples from the recorded data:
1. Nc1cc(F)ccc1NC(=O)/C=C/c1ccc2c(c1)CCC2NCCc1c[nH]c2ccccc12 (stereo not shown) [Compound 57]: > 80%
2. O=C(/C=C/c1ccc2c(c1)CCC2NCCc1ccc(F)cc1)NO (stereo not shown) [Compound 53]: > 80%
3. COc1ccc(N2C(=O)CN(C3CCc4cc(/C=C/C(=O)NO)ccc43)C2=O)cc1 (stereo not shown) [Compound 38]: > 80%
4. O=C(/C=C/c1ccc2c(c1)CC/C(=C\c1cc(C(F)(F)F)cc(C(F)(F)F)c1)C2=O)NO [Compound 7]: < 50%

# return inhibition at 10 µM of Cc1[nH]c2ccccc2c1CCNC1CCCc2cc(/C=C/C(=O)Nc3ccc(F)cc3N)ccc21 (stereo not shown) [Compound 62] (system: HDAC3 (Homo sapiens, UniProt O15379))
> 80%

# return inhibition at 10 µM of O=C(/C=C/c1ccc(COc2ccc3c(c2)CCCC3=O)cc1)NO [Compound 70] (system: HDAC3 (Homo sapiens, UniProt O15379))
> 80%

# return inhibition at 10 µM of Nc1cc(F)ccc1NC(=O)CCCCCC(=O)Nc1ccc2c(c1)CC/C(=C\c1cc(C(F)(F)F)cc(C(F)(F)F)c1)C2=O [Compound 11] (system: HDAC3 (Homo sapiens, UniProt O15379))
< 50%

# return inhibition at 10 µM of Nc1cc(F)ccc1NC(=O)CCCCCNC(=O)/C=C/c1ccc2c(c1)CCC2NC(=O)c1ccc(F)cc1 (stereo not shown) [Compound 31] (system: HDAC3 (Homo sapiens, UniProt O15379))
> 80%

# return inhibition at 10 µM of Nc1cc(F)ccc1NC(=O)CCCCCNC(=O)c1ccc2c(c1)CC/C(=C\c1cc(C(F)(F)F)cc(C(F)(F)F)c1)C2=O [Compound 78] (system: HDAC3 (Homo sapiens, UniProt O15379))
< 50%

# return inhibition at 10 µM of Nc1cc(F)ccc1NC(=O)CCCCNC(=O)c1ccc2c(c1)CC/C(=C\c1cc(C(F)(F)F)cc(C(F)(F)F)c1)C2=O [Compound 80] (system: HDAC3 (Homo sapiens, UniProt O15379))
< 50%

# return inhibition at 10 µM of O=C(/C=C/c1ccc2c(c1)CCC2N1CC(=O)N(c2cc(Cl)cc(Cl)c2)C1=O)NO (stereo not shown) [Compound 37] (system: HDAC3 (Homo sapiens, UniProt O15379))
> 80%

# return inhibition at 10 µM of O=C(NO)c1ccc(COc2ccc3c(c2)CCC(Cc2cc(C(F)(F)F)cc(C(F)(F)F)c2)C3=O)cc1 (stereo not shown) [Compound 68] (system: HDAC3 (Homo sapiens, UniProt O15379))
< 50%

# return inhibition at 10 µM of O=C(/C=C/c1ccc2c(c1)CCC2NS(=O)(=O)c1cc(C(F)(F)F)cc(C(F)(F)F)c1)NO (stereo not shown) [Compound 18] (system: HDAC3 (Homo sapiens, UniProt O15379))
50 to 80%

# return inhibition at 10 µM of O=C(/C=C/c1ccc2c(c1)CCC2NCCc1c[nH]c2ccccc12)NO (stereo not shown) [Compound 58] (system: HDAC3 (Homo sapiens, UniProt O15379))
> 80%

---

Assay system: HDAC1 (Homo sapiens, UniProt Q13547)
Construct: purchased Enzo Life Sciences
Assay overview: HDAC Inhibition Screening Assay (FLUOR DE LYS Fluorimetric Drug Discovery Kit), HDAC1
Type: biochemical
Details: 10 μM compound
Quick list: inhibition at 10 µM per entry.

Examples from the recorded data:
1) CN(C(=O)OCc1cc(C(F)(F)F)cc(C(F)(F)F)c1)C1CCc2cc(/C=C/C(=O)NO)ccc21 (centres unmarked) [Compound 64]: > 80%
2) O=C(CCCCCCC(=O)NC1CCc2cc(Br)ccc21)NO (centres unmarked) [Compound 40]: > 80%

Assign inhibition at 10 µM to the following record: Nc1cc(F)ccc1NC(=O)/C=C/c1ccc(COc2ccc3c(c2)CC/C(=C\c2cc(C(F)(F)F)cc(C(F)(F)F)c2)C3=O)cc1 [Compound 71]
< 50%

Assign inhibition at 10 µM to the following record: Nc1cc(F)ccc1NC(=O)CCCCCCC(=O)NC1CCc2cc(/C=C/C(=O)Nc3cc(Cl)cc(Cl)c3)ccc21 (centres unmarked) [Compound 41]
< 50%

Assign inhibition at 10 µM to the following record: O=C(/C=C/c1ccc2c(c1)CC/C(=C\c1cc(C(F)(F)F)cc(C(F)(F)F)c1)C2=O)NCCCCCC(=O)NO [Compound 8]
> 80%

Assign inhibition at 10 µM to the following record: O=C(/C=C/c1ccc2c(c1)CCC2N1CC(=O)N(c2cc(Cl)cc(Cl)c2)C1=O)NO (centres unmarked) [Compound 37]
> 80%

Assign inhibition at 10 µM to the following record: O=C(/C=C/c1ccc2c(c1)CCC2NS(=O)(=O)c1cc(C(F)(F)F)cc(C(F)(F)F)c1)NO (centres unmarked) [Compound 18]
50 to 80%

---

Quick list: inhibition at 4 µM per entry.
Assay system: ATX (autotaxin) (Homo sapiens)
Construct: purchased Cayman 10803
Assay overview: Autotaxin Inhibition Screening Assay (choline release from LPC, LPC-CR)
Format: biochemical
Details: 4 μM compound

1. O=C(/C=C/c1ccc2c(c1)CC/C(=C\c1cc(C(F)(F)F)cc(C(F)(F)F)c1)C2=O)NO [Compound 7]: < 50%
2. COc1ccc(N2C(=O)CN(C3CCc4cc(/C=C/C(=O)NO)ccc43)C2=O)cc1 (stereo not shown) [Compound 38]: < 50%
3. Nc1cc(F)ccc1NC(=O)CCCCCCC(=O)Nc1ccc2c(c1)CC/C(=C\c1cc(C(F)(F)F)cc(C(F)(F)F)c1)C2=O [Compound 5]: 50 to 80%

Continue with the molecule presented below.
# return inhibition at 4 µM of O=C(/C=C/c1ccc2c(c1)CCC2NCCc1cc(Cl)cc(Cl)c1)NO (stereo not shown) [Compound 55] (system: ATX (autotaxin) (Homo sapiens))
< 50%

---

Assay system: HDAC1 (Homo sapiens, UniProt Q13547)
Construct: purchased Enzo Life Sciences
Assay overview: HDAC Inhibition Screening Assay (FLUOR DE LYS Fluorimetric Drug Discovery Kit), HDAC1
Format: biochemical
Details: 50 μM compound
Quick list: inhibition at 50 µM per entry.

1) O=C(CCCCCC(=O)Nc1ccc2c(c1)CC/C(=C\c1cc(C(F)(F)F)cc(C(F)(F)F)c1)C2=O)NO [Compound 12]: > 80%
2) COc1ccc(S(=O)(=O)NC2CCc3cc(/C=C/C(=O)NO)ccc32)cc1 (stereo not drawn) [Compound 20]: > 80%
3) Nc1cc(F)ccc1NC(=O)/C=C/c1ccc2c(c1)CCCC2NC(=O)c1cc(C(F)(F)F)cc(C(F)(F)F)c1 (stereo not drawn) [Compound 23]: < 50%
4) Cc1[nH]c2ccccc2c1CCNC1CCCc2cc(/C=C/C(=O)NO)ccc21 (stereo not drawn) [Compound 63]: > 80%
5) O=C(/C=C/c1ccc2c(c1)CCC2NCCc1c[nH]c2ccccc12)NO (stereo not drawn) [Compound 58]: > 80%

Assign inhibition at 50 µM to the following record: Nc1cc(F)ccc1NC(=O)/C=C/c1ccc2c(c1)CCC2NCCC(=O)Nc1cc(C(F)(F)F)cc(C(F)(F)F)c1 (stereo not drawn) [Compound 49]
< 50%

---

Assay system: HDAC2 (Homo sapiens, UniProt Q92769)
Construct: purchased Enzo Life Sciences
Sequence (Q92769 whole entry): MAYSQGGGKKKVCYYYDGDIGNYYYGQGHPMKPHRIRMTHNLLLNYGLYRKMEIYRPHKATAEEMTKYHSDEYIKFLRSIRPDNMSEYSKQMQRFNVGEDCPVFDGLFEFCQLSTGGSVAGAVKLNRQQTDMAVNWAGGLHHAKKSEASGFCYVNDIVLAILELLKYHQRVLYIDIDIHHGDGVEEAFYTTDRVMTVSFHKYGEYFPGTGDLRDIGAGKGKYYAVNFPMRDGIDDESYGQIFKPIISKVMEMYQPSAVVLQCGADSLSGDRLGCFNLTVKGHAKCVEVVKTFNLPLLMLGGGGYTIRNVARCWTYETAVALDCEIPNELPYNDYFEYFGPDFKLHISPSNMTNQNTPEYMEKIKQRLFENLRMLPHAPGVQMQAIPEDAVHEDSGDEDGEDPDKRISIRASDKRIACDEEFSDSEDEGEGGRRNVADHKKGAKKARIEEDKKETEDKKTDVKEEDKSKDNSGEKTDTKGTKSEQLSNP
Assay overview: HDAC Inhibition Screening Assay (FLUOR DE LYS Fluorimetric Drug Discovery Kit), HDAC2
Type: biochemical
Details: 50 μM compound
Measured parameter: inhibition at 50 µM

Examples from the recorded data:
1) O=C(/C=C/c1ccc2c(c1)CC/C(=C\c1cc(C(F)(F)F)cc(C(F)(F)F)c1)C2=O)NCCCCCC(=O)NO [Compound 8]: > 80%
2) Nc1cc(F)ccc1NC(=O)/C=C/c1ccc2c(c1)CCC2NCCc1c[nH]c2ccccc12 (stereo not drawn) [Compound 57]: > 80%
3) COc1ccc(S(=O)(=O)NC2CCc3cc(/C=C/C(=O)Nc4ccc(F)cc4N)ccc32)cc1 (stereo not drawn) [Compound 19]: < 50%

Assign inhibition at 50 µM to the following record: Nc1cc(F)ccc1NC(=O)/C=C/c1ccc(COc2ccc3c(c2)CC/C(=C\c2cc(C(F)(F)F)cc(C(F)(F)F)c2)C3=O)cc1 [Compound 71]
< 50%

Assign inhibition at 50 µM to the following record: O=C(/C=C/c1ccc2c(c1)CCC2NC(=O)CCCCCCC(=O)NO)Nc1cc(Cl)cc(Cl)c1 (stereo not drawn) [Compound 42]
> 80%

Assign inhibition at 50 µM to the following record: O=C(/C=C/c1ccc2c(c1)CCC2NC(=O)c1ccc(F)cc1)NCCCCCC(=O)NO (stereo not drawn) [Compound 32]
> 80%
